Recorded values, source paper PMC3299254.

MHC by entry:
tested on: human erythrocytes; experiment: Minimum hemolytic concentration (MHC); format: cell-based; conditions: 1% human erythrocytes in PBS, 37°C, 1 h, OD562; highest concentration with no detectable hemoglobin release (<1% of 0.1% Triton X-100)
No end group written: not given here.

{"SUBSTANCE": "KWKSFIKKLTSKALHSAKKF-NH2 [Peptide A13, S16 derivative by single amino acid substitution]", "SYSTEM_UNDER_TEST": "human erythrocytes", "MHC": ">500 µg/mL"}
{"SUBSTANCE": "KWKSFIKKLTSKFLHSAKKF-NH2 [Peptide S16]", "SYSTEM_UNDER_TEST": "human erythrocytes", "MHC": ">500 µg/mL"}
{"SUBSTANCE": "KWKSFINKLTSKFLHSAKKF-NH2 [Peptide N7]", "SYSTEM_UNDER_TEST": "human erythrocytes", "MHC": ">500 µg/mL"}
{"SUBSTANCE": "KWKSFIKKLTSKFLHLAKKF-NH2 [CP-P]", "SYSTEM_UNDER_TEST": "human erythrocytes", "MHC": "250 µg/mL"}
{"SUBSTANCE": "KWKSFIKKAKTSFLHSAKKF-NH2 [Peptide A9]", "SYSTEM_UNDER_TEST": "human erythrocytes", "MHC": ">500 µg/mL"}
